Several publications report Kd on Receptor-interacting serine/threonine-protein kinase 3 (Homo sapiens, UniProt Q9Y572); those values are gathered here.

Smiles str: COCCS(=O)(=O)Nc1ccc(-c2n[nH]c(Nc3cccc(C(F)(F)F)n3)c2C(N)=O)cc1
Kd: > 30 µM
--
Smiles str: CC(C)n1cc(-c2cnc(N)c3c(-c4ccc(NS(=O)(=O)C(F)F)c(O[C@@H](C)c5ccc(F)cc5)c4)nn(C)c23)cn1
Kd: > 10 µM
--
Smiles str: CCS(=O)(=O)Nc1ccc(-c2n[nH]c(Nc3cnccn3)c2C(N)=O)cc1OCC(C)C
Kd: > 30 µM
--
Smiles str: C[C@H](Oc1cc(-c2nn(C)c3c(-c4cnn(C5CCN(C)CC5)c4)cnc(N)c23)ccc1NS(=O)(=O)C(F)F)c1ccc(F)cc1
Kd: > 10 µM
